Examples of sequences with documented folding stability dG unfold follow.
- protocol_description: folding stability dG unfold (combined trypsin and chymotrypsin); higher = more stable
Answer format: numeric, kcal/mol implied, no suffix.

Illustrative cases are given below, each with its answer.
Reported folding stability dG unfold for SAGGSAGGGMEPVTETITVPITTPEELEAVKKEAEARREKEGLVSYEISESPDGTVTITITKPVSAGGSAGG [r6_730_JUSTAS] : what is it?
0.427

Name the recorded folding stability dG unfold for SAGGSLLEQEAAARGYQVEIERIPGTGVYLVTLTPPDGSRVVVTVEVVKTPKTGLVELRTLETRELPPSAGG [r13_936_JUSTAS] .
1.53

New cases:
// returns reported folding stability dG unfold for input SDPILEILKDAFQEFGIPVQVSIEPDPDGKRVIPIRIMSPKDMDENGMKMQEQTFPIKVNGKKWRVEISWSA [r9_489_TrROS]
1.41
